system: SNB-75; experiment: NCI 60 antitumor screening (single dose / five doses); format: cell-based; details: Homo sapiens; SNB-75, five doses (0.01–100 μM); read-out: GI50
We label by threshold. Values of GI50 strictly beneath 3000 nM are true. Values of 3000 nM and up are false.

Below 3000 nM on GI50? Entry `Brc1cccc(/C=N/Nc2nc(N/N=C/c3cccc(Br)c3)nc(N3CCOCC3)n2)c1`
false

Below 3000 nM on GI50? Entry `Oc1ccccc1/C=N/Nc1nc(N/N=C/c2ccccc2O)nc(N2CCOCC2)n1`
true

Below 3000 nM on GI50? Entry `Clc1cccc(/C=N/Nc2nc(N/N=C/c3cccc(Cl)c3)nc(N3CCOCC3)n2)c1`
false

Below 3000 nM on GI50? Entry `CN(C)c1ccc(/C=N/Nc2nc(N/N=C/c3ccc(N(C)C)cc3)nc(N3CCCCC3)n2)cc1`
true

Below 3000 nM on GI50? Entry `Fc1cccc(Cl)c1/C=N/Nc1nc(N/N=C/c2c(F)cccc2Cl)nc(N2CCCCC2)n1`
true

---

system: SF-539; assay: NCI 60 antitumor screening (single dose / five doses); assay type: cell-based; conditions: Homo sapiens; SF-539 (CNS cancer), single dose 10 μM; read-out: Growth inhibition percentage (GI %)
Assay Readout: inhibition at 10 µM (%)
Write the value in % as a bare number.

What value of measured inhibition at 10 µM is listed for `Fc1cccc(/C=N/Nc2nc(N/N=C/c3cccc(F)c3)nc(N3CCOCC3)n2)c1` ?
12.6

What value of measured inhibition at 10 µM is listed for `Clc1cccc(/C=N/Nc2nc(N/N=C/c3cccc(Cl)c3)nc(N3CCCCC3)n2)c1` ?
-5.25

What value of measured inhibition at 10 µM is listed for `Brc1cccc(/C=N/Nc2nc(N/N=C/c3cccc(Br)c3)nc(N3CCCCC3)n2)c1` ?
-6.24

---

system: SK-MEL-2
We label by threshold. Values of GI50 strictly beneath 2 µM are yes. Values of 2 µM and up are no.

Below 2 µM on GI50? Entry Brc1cccc(/C=N/Nc2nc(N/N=C/c3cccc(Br)c3)nc(N3CCOCC3)n2)c1 [compound 6c]
no

Below 2 µM on GI50? Entry Clc1cccc(/C=N/Nc2nc(N/N=C/c3cccc(Cl)c3)nc(N3CCOCC3)n2)c1 [compound 6d]
no

Below 2 µM on GI50? Entry Oc1ccccc1/C=N/Nc1nc(N/N=C/c2ccccc2O)nc(N2CCOCC2)n1 [compound 6a]
no

Below 2 µM on GI50? Entry Fc1cccc(Cl)c1/C=N/Nc1nc(N/N=C/c2c(F)cccc2Cl)nc(N2CCCCC2)n1 [compound 7l]
yes

---

system: MDA-MB-468; experiment: NCI 60 antitumor screening (single dose / five doses); assay type: cell-based; conditions: Homo sapiens; MDA-MB-468 (breast cancer), single dose 10 μM; read-out: Growth inhibition percentage (GI %)
Assay Readout: inhibition at 10 µM (%)
Write the value in % as a bare number.

What value of measured inhibition at 10 µM is listed for Clc1cccc(/C=N/Nc2nc(N/N=C/c3cccc(Cl)c3Cl)nc(N3CCCCC3)n2)c1Cl [compound 7h] ?
7.19

What value of measured inhibition at 10 µM is listed for Fc1cccc(Cl)c1/C=N/Nc1nc(N/N=C/c2c(F)cccc2Cl)nc(N2CCOCC2)n1 [compound 6l] ?
24.6

What value of measured inhibition at 10 µM is listed for O=C1Nc2ccc(Cl)cc2/C1=N\Nc1nc(N/N=C2/C(=O)Nc3ccc(Cl)cc32)nc(N2CCOCC2)n1 [compound 8b] ?
76.4

What value of measured inhibition at 10 µM is listed for CN(C)c1ccc(/C=N/Nc2nc(N/N=C/c3ccc(N(C)C)cc3)nc(N3CCOCC3)n2)cc1 [compound 6g] ?
2.17

---

Would you kindly list GI50 for each of these compounds?
test system: UO-31; test: NCI 60 antitumor screening (single dose / five doses); type: cell-based; conditions: Homo sapiens; UO-31, five doses (0.01–100 μM); read-out: GI50
Write the value in nM as a bare number.

What value of measured GI50 is listed for `Fc1cccc(Cl)c1/C=N/Nc1nc(N/N=C/c2c(F)cccc2Cl)nc(N2CCCCC2)n1` ?
2010

What value of measured GI50 is listed for `Oc1ccccc1/C=N/Nc1nc(N/N=C/c2ccccc2O)nc(N2CCOCC2)n1` ?
370

What value of measured GI50 is listed for `Brc1cccc(/C=N/Nc2nc(N/N=C/c3cccc(Br)c3)nc(N3CCOCC3)n2)c1` ?
1010

What value of measured GI50 is listed for `Clc1cccc(/C=N/Nc2nc(N/N=C/c3cccc(Cl)c3)nc(N3CCOCC3)n2)c1` ?
1610

What value of measured GI50 is listed for `CN(C)c1ccc(/C=N/Nc2nc(N/N=C/c3ccc(N(C)C)cc3)nc(N3CCCCC3)n2)cc1` ?
1720

---

Would you kindly list inhibition at 10 µM for each of these molecules?
test system: SK-MEL-2; test: NCI 60 antitumor screening (single dose / five doses); type: cell-based; conditions: Homo sapiens; SK-MEL-2 (melanoma), single dose 10 μM; read-out: Growth inhibition percentage (GI %)
Write the value in % as a bare number.

For the record `Brc1cccc(/C=N/Nc2nc(N/N=C/c3cccc(Br)c3)nc(N3CCOCC3)n2)c1` , what value of inhibition at 10 µM is listed for SK-MEL-2?
97.4

For the record `Oc1ccc(/C=N/Nc2nc(N/N=C/c3ccc(O)c(O)c3)nc(N3CCOCC3)n2)cc1O` , what value of inhibition at 10 µM is listed for SK-MEL-2?
3.04

For the record `Brc1cccc(/C=N/Nc2nc(N/N=C/c3cccc(Br)c3)nc(N3CCCCC3)n2)c1` , what value of inhibition at 10 µM is listed for SK-MEL-2?
-2.13

For the record `Fc1cccc(Cl)c1/C=N/Nc1nc(N/N=C/c2c(F)cccc2Cl)nc(N2CCCCC2)n1` , what value of inhibition at 10 µM is listed for SK-MEL-2?
126

For the record `Oc1ccccc1/C=N/Nc1nc(N/N=C/c2ccccc2O)nc(N2CCOCC2)n1` , what value of inhibition at 10 µM is listed for SK-MEL-2?
28

For the record COC(=O)C(Cc1ccccc1)Nc1nc(NC(Cc2ccccc2)C(=O)OC)nc(N2CCOCC2)n1 (stereo not shown) , what value of inhibition at 10 µM is listed for SK-MEL-2?
-11

For the record `Clc1cccc(/C=N/Nc2nc(N/N=C/c3cccc(Cl)c3)nc(N3CCCCC3)n2)c1` , what value of inhibition at 10 µM is listed for SK-MEL-2?
13.9

For the record `CN(C)c1ccc(/C=N/Nc2nc(N/N=C/c3ccc(N(C)C)cc3)nc(N3CCCCC3)n2)cc1` , what value of inhibition at 10 µM is listed for SK-MEL-2?
-10.8

For the record `Fc1cccc(Cl)c1/C=N/Nc1nc(N/N=C/c2c(F)cccc2Cl)nc(N2CCOCC2)n1` , what value of inhibition at 10 µM is listed for SK-MEL-2?
17.1

For the record `Clc1cccc(/C=N/Nc2nc(N/N=C/c3cccc(Cl)c3)nc(N3CCOCC3)n2)c1` , what value of inhibition at 10 µM is listed for SK-MEL-2?
102

For the record `Fc1cccc(/C=N/Nc2nc(N/N=C/c3cccc(F)c3)nc(N3CCCCC3)n2)c1` , what value of inhibition at 10 µM is listed for SK-MEL-2?
0.55

For the record `Clc1cccc(/C=N/Nc2nc(N/N=C/c3cccc(Cl)c3Cl)nc(N3CCOCC3)n2)c1Cl` , what value of inhibition at 10 µM is listed for SK-MEL-2?
13.8

For the record `Fc1cccc(/C=N/Nc2nc(N/N=C/c3cccc(F)c3)nc(N3CCOCC3)n2)c1` , what value of inhibition at 10 µM is listed for SK-MEL-2?
2.51

For the record `CN(C)c1ccc(/C=N/Nc2nc(N/N=C/c3ccc(N(C)C)cc3)nc(N3CCOCC3)n2)cc1` , what value of inhibition at 10 µM is listed for SK-MEL-2?
1.45

For the record `C(=N\Nc1nc(N/N=C/c2ccc3c(c2)OCO3)nc(N2CCOCC2)n1)/c1ccc2c(c1)OCO2` , what value of inhibition at 10 µM is listed for SK-MEL-2?
1.68

For the record `C(=N\Nc1nc(N/N=C/c2ccc3c(c2)OCO3)nc(N2CCCCC2)n1)/c1ccc2c(c1)OCO2` , what value of inhibition at 10 µM is listed for SK-MEL-2?
-2.84

---

system: RXF 393; assay: NCI 60 antitumor screening (single dose / five doses); type: cell-based; details: Homo sapiens; RXF 393 (renal cancer), single dose 10 μM; read-out: Growth inhibition percentage (GI %)
Assay Readout: inhibition at 10 µM

What value of measured inhibition at 10 µM is listed for CN(C)c1ccc(/C=N/Nc2nc(N/N=C/c3ccc(N(C)C)cc3)nc(N3CCOCC3)n2)cc1 [compound 6g] ?
6.9%

What value of measured inhibition at 10 µM is listed for Clc1cccc(/C=N/Nc2nc(N/N=C/c3cccc(Cl)c3)nc(N3CCCCC3)n2)c1 [compound 7d] ?
6.56%

What value of measured inhibition at 10 µM is listed for O=C1Nc2ccc(Cl)cc2/C1=N\Nc1nc(N/N=C2/C(=O)Nc3ccc(Cl)cc32)nc(N2CCOCC2)n1 [compound 8b] ?
86.3%

What value of measured inhibition at 10 µM is listed for Oc1ccccc1/C=N/Nc1nc(N/N=C/c2ccccc2O)nc(N2CCCCC2)n1 [compound 7a] ?
17%

What value of measured inhibition at 10 µM is listed for Brc1cccc(/C=N/Nc2nc(N/N=C/c3cccc(Br)c3)nc(N3CCOCC3)n2)c1 [compound 6c] ?
168%

What value of measured inhibition at 10 µM is listed for C(=N\Nc1nc(N/N=C/c2ccc3c(c2)OCO3)nc(N2CCCCC2)n1)/c1ccc2c(c1)OCO2 [compound 7k] ?
20.3%

What value of measured inhibition at 10 µM is listed for Fc1cccc(/C=N/Nc2nc(N/N=C/c3cccc(F)c3)nc(N3CCCCC3)n2)c1 [compound 7e] ?
-12.5%

Measured values drawn from paper PMC9848300 for this set.
